- assayed_system: PI 4-kinase beta (Homo sapiens)
- Sequence (Q9UBF8 whole entry): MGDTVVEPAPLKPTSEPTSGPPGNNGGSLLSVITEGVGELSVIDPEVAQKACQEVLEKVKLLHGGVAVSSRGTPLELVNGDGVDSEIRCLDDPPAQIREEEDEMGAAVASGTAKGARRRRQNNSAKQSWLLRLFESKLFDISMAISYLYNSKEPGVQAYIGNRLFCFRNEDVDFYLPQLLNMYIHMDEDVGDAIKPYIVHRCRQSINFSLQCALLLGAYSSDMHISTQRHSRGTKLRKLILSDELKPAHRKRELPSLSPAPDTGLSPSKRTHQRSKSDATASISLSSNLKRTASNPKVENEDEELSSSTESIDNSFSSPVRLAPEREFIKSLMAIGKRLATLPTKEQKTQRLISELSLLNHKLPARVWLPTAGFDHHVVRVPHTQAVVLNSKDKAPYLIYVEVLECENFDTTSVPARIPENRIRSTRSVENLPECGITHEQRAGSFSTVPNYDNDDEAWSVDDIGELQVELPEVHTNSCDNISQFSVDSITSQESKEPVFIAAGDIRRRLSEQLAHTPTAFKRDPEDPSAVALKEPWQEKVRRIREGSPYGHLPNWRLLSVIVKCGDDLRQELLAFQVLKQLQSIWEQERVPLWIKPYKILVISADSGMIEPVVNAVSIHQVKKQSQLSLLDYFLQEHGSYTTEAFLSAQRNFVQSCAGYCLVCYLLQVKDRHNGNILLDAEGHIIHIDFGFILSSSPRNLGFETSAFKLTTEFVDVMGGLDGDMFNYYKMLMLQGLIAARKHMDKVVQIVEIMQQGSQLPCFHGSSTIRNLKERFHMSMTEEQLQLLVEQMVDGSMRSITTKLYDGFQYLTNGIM
- experimental_protocol: Kinase Glo Luminescent Kinase Assay (Kglo), assay D
- Type: biochemical
- cond: read-out: Assay D PI4Kβ IC50
recorded_endpoint: pIC50
Here pIC50 is given on a logarithmic scale as minus log10 of the concentration in mol/L.

Example entries begin here.
Cc1ncc(-c2nc(-c3cc(S(=O)(=O)NCC4COC4)ccc3C)cnc2N)s1 [Example 45.1]; 5.52
Cc1ccc(S(=O)(=O)NCC(C)(C)O)cc1-c1cnc(N)c(-c2cnn(C)n2)n1 [Example 18]; 5.07
Cc1ncc(-c2nc(-c3cc(S(=O)(=O)NCC4CCOCC4)ccc3C)cnc2N)s1 [Example 45.2]; 5.24

API: value(readout=pIC50, system=PI 4-kinase beta (Homo sapiens)) for record Cc1ccc(S(=O)(=O)N[C@H]2CC[C@@H](O)CC2)cc1-c1cnc(N)c(-c2cnn(C)c2)n1 [Example 75]
5.10

// query: Cc1cc(-c2nc(-c3cc(S(=O)(=O)N[C@H]4CC[C@H](O)CC4)ccc3C)cnc2N)ccn1 [Example 135]
5.38

Next compound: Cc1ccc(S(=O)(=O)NCC2(CO)COC2)cc1-c1cnc(N)c(-c2cn(C)nc2C)n1 [Example 128]
5.17

Can you check Cc1ccc(S(=O)(=O)N[C@H](C#N)CO)cc1-c1cnc(N)c(-n2cncn2)n1 [Example 127.48] next?
5.23

Try this compound next: Cc1cncc(-c2nc(-c3cc(S(=O)(=O)NCCC(C)(C)O)ccc3C)cnc2N)c1 [Example 119.7]
5.10
